Origin of values: paper PMC10060354

Assay: CaCo-2 permeability (bi-directional)
Details: human, Caco-2, pH 7.4, Papp A2B Replicate 2, HBSS/HBSS; pH 7.4/7.4
In plain terms, low Papp A→B at 120 min, 10 μM, meaning strictly below 5 ×10⁻⁶ cm/s, gives criterion met, and everything else gives criterion not met.

**Query** Consider CC(C)C[C@@H](CO)NCc1cc(O)c2cc(F)ccc2n1 . Does its Papp A→B at 120 min, 10 μM lie strictly below 5 ×10⁻⁶ cm/s?
**Result** criterion met

**Query** Consider O=C(O)c1c(Cl)cc(O)c2c1C1C=CCC1C(c1ccc(Cl)cc1)N2 (stereo not drawn) . Does its Papp A→B at 120 min, 10 μM lie strictly below 5 ×10⁻⁶ cm/s?
**Result** criterion met

**Query** Consider COc1ncc(C(C)NC2CC(C)(C)NC(C)(C)C2)cc1Cl (stereo not drawn) . Does its Papp A→B at 120 min, 10 μM lie strictly below 5 ×10⁻⁶ cm/s?
**Result** criterion met

**Query** Consider O=[N+]([O-])c1c(Cl)cc(O)c2c1C1C=CCC1C(c1ccc(Cl)cc1)N2 (stereo not drawn) . Does its Papp A→B at 120 min, 10 μM lie strictly below 5 ×10⁻⁶ cm/s?
**Result** criterion met

**Query** Consider CC1(C)Cc2cccc(OCC(=O)Nc3nc4ccccc4s3)c2O1 . Does its Papp A→B at 120 min, 10 μM lie strictly below 5 ×10⁻⁶ cm/s?
**Result** criterion met

**Query** Consider Cc1[nH]nc(-c2ccc(O)c(C)c2O)c1-c1nc2ccccc2s1 . Does its Papp A→B at 120 min, 10 μM lie strictly below 5 ×10⁻⁶ cm/s?
**Result** criterion not met
